- protocolNotes: Pharmacokinetic study after single oral and IV administration of KD025 to rats
- Assay type: in vivo, Sprague–Dawley rats
- settings: Sprague-Dawley, rat, plasma, po, 5 mg/kg, PO 5 mg/kg, n = 5
- Procedure: The feasibility of the developed LC/MS–MS method was examined by performing pharmacokinetic studies of KD025 in rats. […] For sample preparation, 100 μL of IS in acetonitrile solution (250 ng/mL) was added to 50 μL of plasma samples, followed by vortex-mixing in 1 min for deproteinization. […] The plasma peak concentration (Cmax) and time to reach Cmax (Tmax) were directly determined from each individual plasma concentration–time profile. […]
propertyMeasured: AUC(0-inf)

Form: molecule = CC(C)NC(=O)COc1cccc(-c2nc(Nc3ccc4[nH]ncc4c3)c3ccccc3n2)c1 [KD025] ; AUC(0-inf) = 877 ng·h/mL
